# measurementTarget: Thioredoxin reductase (Mycobacterium tuberculosis) (UniProt P9WHH1)
# Sequence (P9WHH1 whole entry): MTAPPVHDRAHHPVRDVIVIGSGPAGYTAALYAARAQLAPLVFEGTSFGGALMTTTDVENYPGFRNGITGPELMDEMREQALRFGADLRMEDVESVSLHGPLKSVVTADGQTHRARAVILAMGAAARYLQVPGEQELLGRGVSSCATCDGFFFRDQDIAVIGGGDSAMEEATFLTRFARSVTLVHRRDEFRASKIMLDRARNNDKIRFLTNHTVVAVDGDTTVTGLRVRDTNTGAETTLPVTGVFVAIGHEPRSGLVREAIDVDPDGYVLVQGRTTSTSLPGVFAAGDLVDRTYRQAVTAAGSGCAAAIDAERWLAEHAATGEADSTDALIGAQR
# protocolText: Inhibition of Mycobacterium tuberculosis Thioredoxin reductase assessed as inhibition
recordedMetric: MIC

Worked set:
CCCCCC/C=C/C=C\CCCCCCCC(=O)O	< 20 µg/mL
C=C1C[C@@]23CCC4[C@H](C(=O)O)CCC[C@@]4(C)[C@@H]2CC[C@@H]1C3 (some centres undefined)	0.5 µg/mL
CCCCCC/C=C/C=C/CCCCCCCC(=O)O	< 20 µM

Entry `CCCCC/C=C\C=C\CCCCCCCCC(=O)O` has what MIC?
< 20 µg/mL

----------
# System: Mycobacterium tuberculosis
# protocolText: Antitubercular activity against Mycobacterium tuberculosis H37Rv […] THP-1 cells in presence of pyrazinamide
# Type: functional, organism-based
recordedMetric: EC50 (µM)
Return type: number; implicit unit µM.

Entry CC[C@H](C)C(=O)O[C@H]1C[C@H](O)C=C2C=C[C@H](C)[C@H](CC[C@@H](O)C[C@@H](O)CC(=O)O)[C@H]21 [PRAVASTATIN] has what EC50?
7.8
